- testProtocol: A qHTS for Small Molecule Inhibitors of Shiga Toxin; further: 0% is about no effect
- runParameters: Vero cells, Shiga toxin protein synthesis inhibition reporter; at 38.7 µM, active compounds read high
Among all 290,000 compounds or so, about 27,000 (9.3%) were called active. Shown is part of a subset that was picked to be rich in actives.
measureName: inhibition

compound: C/C(=N\Nc1ccc(S(N)(=O)=O)cc1[N+](=O)[O-])c1cccs1
reportedMeasurement: 2.64% (inactive)

compound: CCOC(=O)C1CCN(S(=O)(=O)c2ccc3c(c2)N(C)C(=O)CC(=O)N3C)CC1
reportedMeasurement: -0.654% (inactive)

compound: CCOC(=O)[C@@H]1[C@H]2COc3cc(OC)ccc3[C@H]2N2C(=O)N(c3ccc(F)cc3)C(=O)[C@]12C
reportedMeasurement: -4.71% (inactive)

compound: Cc1cc(S(=O)(=O)c2cc3ccc(O)c(C)c3oc2=O)ccc1F
reportedMeasurement: 23.1% (inactive)

compound: CC(C)c1ccc(/C=C/C(=O)NNC(=O)c2cccnc2)cc1
reportedMeasurement: 0.769% (inactive)

compound: CCC(C(=O)NC1CCCC1)N(C(=O)Cn1nnc(-c2ccc(C)o2)n1)c1ccc(OC)c(OC)c1 (centres undefined)
reportedMeasurement: -7.44% (inactive)

compound: Cc1cccc(OCC(=O)NC2CC(C)(C)NC(C)(C)C2)c1
reportedMeasurement: 1.98% (inactive)

compound: O=C(NC(=O)c1cc(OCC(F)(F)F)ccc1OCC(F)(F)F)Nc1ccccc1
reportedMeasurement: 27.7% (inactive)

compound: O=C(COc1ccc2oc3c(c2c1)CCCC3)Nc1ccccn1
reportedMeasurement: 57.2% (active)

compound: Cc1ccc(N(Cc2ccccc2O)C(=O)c2ccccc2F)cc1
reportedMeasurement: -2.19% (inactive)

compound: CCN(CC)c1ccc(C(=O)N/N=C(\C)c2cccc(OC)c2)cc1
reportedMeasurement: 22.3% (inactive)

compound: COc1ccc(CNC(=O)c2c[nH]c3c(OC)cc(OC)cc3c2=O)cc1
reportedMeasurement: -11.7% (inactive)

compound: Cc1noc(C)c1CCC(=O)O
reportedMeasurement: 17.5% (inactive)

compound: COC(=O)CCC(=O)N1CCCC(CO)(Cc2ccccc2)C1 (centres undefined)
reportedMeasurement: 110% (active)

compound: CCCNC(=O)CCc1c(C)nc2c(c(C)nn2-c2ccccc2)c1C
reportedMeasurement: -16.2% (inactive)

compound: COc1ccc2[nH]c(=O)c(CN(Cc3cccnc3)S(=O)(=O)c3ccccc3F)cc2c1
reportedMeasurement: -10.7% (inactive)

compound: Cc1ccc(NS(=O)(=O)c2ccc3c(c2)n(C)c(=O)c(=O)n3C)c(C)c1
reportedMeasurement: -7.48% (inactive)

compound: COc1ccc(-c2nn(-c3ccccc3)cc2C(=O)Nc2nccs2)cc1OC
reportedMeasurement: 12.9% (inactive)

compound: CCOc1ccc(C(O)Cc2nc3ccccc3n2C)cc1 (centres undefined)
reportedMeasurement: 61.7% (active)

compound: Cc1cccc(-c2c(NC(=O)c3ccco3)oc3ccc(Cl)cc3c2=O)c1
reportedMeasurement: 20.5% (inactive)

compound: Cc1noc(C)c1CCC(=O)N1CCCC(CO)(Cc2ccccc2)C1 (centres undefined)
reportedMeasurement: 98.7% (active)

compound: CCc1cc(-c2nnc(SCC(=O)NC3CC3)n2C)cs1
reportedMeasurement: 14.1% (inactive)

compound: C/C(=N\Nc1ncc(Cl)cc1Cl)c1cccs1
reportedMeasurement: 101% (active)

compound: CN(C)/C=C(\C=[N+](C)C)c1[nH]ncc1[N+](=O)[O-]
reportedMeasurement: -4.31% (inactive)
